method description: Cmax in Sprague-Dawley rat plasma at 16 mg/kg administered through oral gavage measured at 5 mins to 24 hrs post dosing by LC/MS analysis
Format: ADME, organism-based
Set-up: dose 16 mg/kg, route oral
protocol conditions: in vivo

[
  {
    "chemical smiles": "Cc1cc(C#N)cc(C)c1Oc1nc(NC2CCN(Cc3ccc(S(N)(=O)=O)cc3)CC2)nc2ccsc12",
    "measure unit": "ng/mL",
    "Cmax": 472
  }
]

----------
method description: Selectivity index, ratio of CC50 for human mock-infected MT4 cells to EC50 for HIV1 RES056 harboring reverse transcriptase K103N/Y181C double mutant infected in human MT4 cells
Format: toxicity, cell-based
protocol conditions: MT4 cells (mock-infected for CC50, HIV-1 infected for EC50)

[
  {
    "chemical smiles": "Cc1cc(C#N)cc(C)c1Oc1nc(NC2CCN(Cc3ccc(C#N)cc3)CC2)nc2ccsc12",
    "operator symbol": "=",
    "selectivity ratio": 12
  },
  {
    "chemical smiles": "Cc1cc(C#N)cc(C)c1Oc1nc(NC2CCN(Cc3cccc(S(N)(=O)=O)c3)CC2)nc2ccsc12",
    "operator symbol": ">",
    "selectivity ratio": 120
  },
  {
    "chemical smiles": "Cc1cc(C#N)cc(C)c1Oc1nc(NC2CCN(Cc3ccc(S(C)(=O)=O)cc3)CC2)nc2ccsc12",
    "operator symbol": "=",
    "selectivity ratio": 50
  },
  {
    "chemical smiles": "Cc1cc(C#N)cc(C)c1Oc1nc(NC2CCN(Cc3ccc(Br)cc3)CC2)nc2ccsc12",
    "operator symbol": "=",
    "selectivity ratio": 12
  },
  {
    "chemical smiles": "Cc1cc(C)c(Oc2nc(NC3CCN(Cc4ccc(F)cc4F)CC3)nc3ccsc23)c(C)c1",
    "operator symbol": "<",
    "selectivity ratio": 1
  }
]

----------
Test system: Human immunodeficiency virus 1
method description: Antiviral activity against wild type HIV1 3B harboring reverse transcriptase infected in human MT4 cells assessed as protection against virus induced cytotoxicity after 5 days by MTT assay
Format: functional, cell-based
protocol conditions: Human immunodeficiency virus 1, 3B, MT4, 120 h
property measured: EC50 (nM)

[
  {
    "compound": "Cc1cc(C#N)cc(C)c1Oc1nc(NC2CCN(Cc3ccc(S(N)(=O)=O)cc3)CC2)nc2ccsc12",
    "assayed target": "Human immunodeficiency virus 1",
    "property measured": "EC50",
    "reported measurement": 1.4
  },
  {
    "compound": "Cc1cc(C)c(Oc2nc(NC3CCN(Cc4ccc([N+](=O)[O-])cc4)CC3)nc3ccsc23)c(C)c1",
    "assayed target": "Human immunodeficiency virus 1",
    "property measured": "EC50",
    "reported measurement": 31.8
  },
  {
    "compound": "Cc1cn([C@H]2C[C@H](N=[N+]=[N-])[C@@H](CO)O2)c(=O)[nH]c1=O [ZIDOVUDINE]",
    "assayed target": "Human immunodeficiency virus 1",
    "property measured": "EC50",
    "reported measurement": 5.8
  },
  {
    "compound": "Cc1cc(C#N)cc(C)c1Oc1nc(NC2CCN(Cc3cccc(F)c3)CC2)nc2ccsc12",
    "assayed target": "Human immunodeficiency virus 1",
    "property measured": "EC50",
    "reported measurement": 4.4
  },
  {
    "compound": "Cc1cc(C#N)cc(C)c1Oc1nc(NC2CCN(Cc3ccc(Br)cc3)CC2)nc2ccsc12",
    "assayed target": "Human immunodeficiency virus 1",
    "property measured": "EC50",
    "reported measurement": 26.6
  },
  {
    "compound": "Cc1cc(C#N)cc(C)c1Oc1nc(NC2CCN(Cc3ccc([N+](=O)[O-])cc3)CC2)nc2ccsc12",
    "assayed target": "Human immunodeficiency virus 1",
    "property measured": "EC50",
    "reported measurement": 7.57
  },
  {
    "compound": "Cc1cc(C#N)cc(C)c1Oc1nc(NC2CCN(Cc3cccc(C#N)c3)CC2)nc2ccsc12",
    "assayed target": "Human immunodeficiency virus 1",
    "property measured": "EC50",
    "reported measurement": 4.14
  },
  {
    "compound": "Cc1cc(C)c(Oc2nc(NC3CCN(Cc4ccc(S(C)(=O)=O)cc4)CC3)nc3ccsc23)c(C)c1",
    "assayed target": "Human immunodeficiency virus 1",
    "property measured": "EC50",
    "reported measurement": 5.7
  },
  {
    "compound": "Cc1cc(C#N)cc(C)c1Oc1nc(NC2CCN(Cc3ccccc3C#N)CC2)nc2ccsc12",
    "assayed target": "Human immunodeficiency virus 1",
    "property measured": "EC50",
    "reported measurement": 5.71
  }
]
